List of percent inhibition of Factor 7 mRNA, relative to untreated control cells values.
# System: human Factor 7 mRNA
# protocol notes: Dose-dependent antisense inhibition of human Factor 7 in HepB3 cells, transfection with electroporation
# Type: cell-based
# protocol conditions: 6.25 μM, 16 hours (Example 7, Table 15)
In the oligonucleotide strings, read from the 5' end, every base follows the letter of its sugar. An asterisk marks phosphorothioate; unmarked linkages are phosphodiester. Other units and linkages are bracketed, terminal groups are in braces. A string of capitals states the bases alone. e = 2'-O-(2-methoxyethyl) (MOE); [5mC] = 5-methylcytosine; d = 2'-deoxy (DNA)
Report as a plain number; the unit % is understood.

- 422177 (antisense e[5mC]*e[5mC]*e[5mC]*dG*d[5mC]*d[5mC]*dG*dG*d[5mC]*dT*d[5mC]*dT*dG*d[5mC]*dT*d[5mC]*dA*eT*e[5mC]*e[5mC]) [compound 422177]: 10
- 407935 (antisense eA*eT*eG*e[5mC]*eA*dT*dG*dG*dT*dG*dA*dT*dG*d[5mC]*dT*eT*e[5mC]*eT*eG*eA) [compound 407935]: 47

The substance identified as 422183 (antisense eG*e[5mC]*eG*d[5mC]*d[5mC]*dA*d[5mC]*d[5mC]*d[5mC]*dG*d[5mC]*d[5mC]*dG*dG*d[5mC]*dT*d[5mC]*eT*eG*e[5mC]) [compound 422183] registered its percent inhibition of Factor 7 mRNA, relative to untreated control cells at 28

// recorded percent inhibition of Factor 7 mRNA, relative to untreated control cells for 407939 (antisense eT*eG*e[5mC]*eA*eG*d[5mC]*d[5mC]*d[5mC]*dG*dG*d[5mC]*dA*d[5mC]*d[5mC]*d[5mC]*eA*eG*e[5mC]*eG*eA) [compound 407939] : 28

Record 422087 (antisense e[5mC]*eA*eT*eG*e[5mC]*dA*dT*dG*dG*dT*dG*dA*dT*dG*d[5mC]*eT*eT*e[5mC]*eT*eG) [compound 422087] , field percent inhibition of Factor 7 mRNA, relative to untreated control cells: 26

* * *

# Tested on: human Factor 7 mRNA
# protocol notes: Dose-dependent antisense inhibition of human Factor 7 in HepB3 cells, transfection with lipofectin
# Type: cell-based
# protocol conditions: 100 nM, lipofectin, HepB3 cells, 16 hours
# Protocol: Cells were plated at a density of 4,000 cells per well and treated with lipofectin reagent with 3.125 nM, 6.25 nM, 12.5 nM, 25 nM, 50 nM, and 100 nM concentrations of antisense oligonucleotide, as indicated in Table 3. After a treatment period of approximately 16 hours, RNA was isolated from the cells and Factor 7 mRNA levels were measured by real-time RT-PCR, as described herein. […] Factor 7 mRNA levels were adjusted according to total RNA content as measured by RIBOGREEN®. […]
In the oligonucleotide strings, read from the 5' end, every base follows the letter of its sugar. An asterisk marks phosphorothioate; unmarked linkages are phosphodiester. Other units and linkages are bracketed, terminal groups are in braces. A string of capitals states the bases alone. e = 2'-O-(2-methoxyethyl) (MOE); [5mC] = 5-methylcytosine; d = 2'-deoxy (DNA)
property name: percent inhibition of Factor 7 mRNA, relative to untreated control cells
The reply should read as a number followed by its unit.

percent inhibition of Factor 7 mRNA, relative to untreated control cells reading for 422295 (antisense e[5mC]*eG*dA*dG*dT*dT*d[5mC]*dT*dG*d[5mC]*dA*dG*dG*dA*dG*e[5mC]*eG*eG*e[5mC]*e[5mC]) [compound 422295] : 85%

* * *

Known percent inhibition of Factor 7 mRNA, relative to untreated control cells of a selection of substances
# Test system: human Factor 7 mRNA
# protocol notes: Dose-dependent antisense inhibition of human Factor 7 in HepB3 cells, transfection with lipofectin
# Format: cell-based
# protocol conditions: 25 nM, lipofectin, HepB3 cells, 16 hours
In the oligonucleotide strings, read from the 5' end, every base follows the letter of its sugar. An asterisk marks phosphorothioate; unmarked linkages are phosphodiester. Other units and linkages are bracketed, terminal groups are in braces. A string of capitals states the bases alone. e = 2'-O-(2-methoxyethyl) (MOE); [5mC] = 5-methylcytosine; d = 2'-deoxy (DNA)
Could you give me the number in %? Just the number is fine.

Reference set (5 entries):
* 422295 (antisense e[5mC]*eG*dA*dG*dT*dT*d[5mC]*dT*dG*d[5mC]*dA*dG*dG*dA*dG*e[5mC]*eG*eG*e[5mC]*e[5mC]) [compound 422295] | 64
* 422228 (antisense eT*eG*d[5mC]*dA*dT*dG*dG*dT*dG*dA*dT*dG*d[5mC]*dT*dT*e[5mC]*eT*eG*eA*eA) [compound 422228] | 60
* 422150 (antisense eG*e[5mC]*eA*dT*dG*dG*dT*dG*dA*dT*dG*d[5mC]*dT*dT*d[5mC]*dT*dG*eA*eA*eT) [compound 422150] | 59
* 422130 (antisense eG*e[5mC]*e[5mC]*eT*eG*dA*dG*dG*d[5mC]*d[5mC]*dA*dG*d[5mC]*dA*dG*eA*eT*e[5mC]*eA*e[5mC]) [compound 422130] | 59
* 422096 (antisense eA*eG*eA*e[5mC]*eA*dA*dT*dG*dG*dT*d[5mC]*dA*dG*dG*dG*e[5mC]*eT*eG*eG*eT) [compound 422096] | 60

Measured percent inhibition of Factor 7 mRNA, relative to untreated control cells of 407935 (antisense eA*eT*eG*e[5mC]*eA*dT*dG*dG*dT*dG*dA*dT*dG*d[5mC]*dT*eT*e[5mC]*eT*eG*eA) [compound 407935] : 70

* * *

# Test system: human Factor 7 mRNA
# protocol notes: Antisense inhibition of human Factor 7 mRNA in HepB3 cells, lipofectin, 50 nM, real-time RT-PCR
# Assay type: cell-based
# protocol conditions: HepB3 cells; gapmers targeted to nucleobases 13760 to 13789 of SEQ ID NO: 1 (Table 10)
In the oligonucleotide strings, read from the 5' end, every base follows the letter of its sugar. An asterisk marks phosphorothioate; unmarked linkages are phosphodiester. Other units and linkages are bracketed, terminal groups are in braces. A string of capitals states the bases alone. e = 2'-O-(2-methoxyethyl) (MOE); [5mC] = 5-methylcytosine; d = 2'-deoxy (DNA)
Quick rule: % Inhibition of human Factor 7 mRNA levels of at least 60% means met, below that means not met.

* 422175 (antisense e[5mC]*eG*e[5mC]*d[5mC]*dG*dG*d[5mC]*dT*d[5mC]*dT*dG*d[5mC]*dT*d[5mC]*dA*dT*d[5mC]*e[5mC]*e[5mC]*e[5mC]) [compound 422175] | met
* 422260 (antisense eG*e[5mC]*dG*d[5mC]*d[5mC]*dA*d[5mC]*d[5mC]*d[5mC]*dG*d[5mC]*d[5mC]*dG*dG*d[5mC]*eT*e[5mC]*eT*eG*e[5mC]) [compound 422260] | not met
* 422180 (antisense e[5mC]*e[5mC]*eA*d[5mC]*d[5mC]*d[5mC]*dG*d[5mC]*d[5mC]*dG*dG*d[5mC]*dT*d[5mC]*dT*dG*d[5mC]*eT*e[5mC]*eA) [compound 422180] | not met
* 422257 (antisense e[5mC]*e[5mC]*dA*d[5mC]*d[5mC]*d[5mC]*dG*d[5mC]*d[5mC]*dG*dG*d[5mC]*dT*d[5mC]*dT*eG*e[5mC]*eT*e[5mC]*eA) [compound 422257] | met

Q) Determine whether measured % Inhibition of human Factor 7 mRNA levels meets or exceeds 60% for 422181 (antisense eG*e[5mC]*e[5mC]*dA*d[5mC]*d[5mC]*d[5mC]*dG*d[5mC]*d[5mC]*dG*dG*d[5mC]*dT*d[5mC]*dT*dG*e[5mC]*eT*e[5mC]) [compound 422181]
A) met

Q) Please tell me: is the substance 422184 (antisense eT*eG*e[5mC]*dG*d[5mC]*d[5mC]*dA*d[5mC]*d[5mC]*d[5mC]*dG*d[5mC]*d[5mC]*dG*dG*d[5mC]*dT*e[5mC]*eT*eG) [compound 422184] at or over 60% in terms of % Inhibition of human Factor 7 mRNA levels?
A) not met

Q) Can 422254 (antisense e[5mC]*e[5mC]*d[5mC]*dG*d[5mC]*d[5mC]*dG*dG*d[5mC]*dT*d[5mC]*dT*dG*d[5mC]*dT*e[5mC]*eA*eT*e[5mC]*e[5mC]) [compound 422254] be said to have % Inhibition of human Factor 7 mRNA levels at or above 60%?
A) not met

Q) Confirm if % Inhibition of human Factor 7 mRNA levels reported for the substance 422111 (antisense e[5mC]*eA*e[5mC]*e[5mC]*e[5mC]*dG*d[5mC]*d[5mC]*dG*dG*d[5mC]*dT*d[5mC]*dT*dG*e[5mC]*eT*e[5mC]*eA*eT) [compound 422111] is 60% or above.
A) not met
